All figures here come from patent US12018011B2.

System: Recombinant human farnesyl transferase (FTase) (Homo sapiens)
Assay Notes: FTase fluorescence assay (farnesylation of dansyl-GCVLS peptide)
Condition Label: recombinant human FTase 2.5 nM, Dansyl-GCVLS 85 nM, FPP 30 nM, 30° C., 50 minutes
pIC50: −log10 of the molar value.
Reported pIC50 values for a set of compounds

Compound	pIC50
[2H]C([2H])([2H])n1c(=O)cc2c3cc(ccc31)[C@@](N)(c1cncn1C)c1ccc(C#N)c(c1)COc1cccc-2c1 [(S)-56]	≥ 8.00
[2H]C([2H])([2H])n1c(=O)cc2c3cc(ccc31)[C@](O)(c1cncn1C)c1ccc(C#N)c(c1)COc1cccc-2c1 (racemic) [(R)-55]	< 7.00
Cn1cncc1[C@@](N)(c1ccc(Cl)cc1)c1ccc2c(c1)c(-c1cccc(Cl)c1)cc(=O)n2C [Tipifarnib, tipifarnib, reference compound]	≥ 8.00
[2H]C([2H])([2H])n1cncc1[C@@]1(N)c2ccc(C#N)c(c2)COc2cccc(c2)-c2cc(C#N)nc3ccc1cc23 [(S)-70]	≥ 8.00

Okay, next one:
Complete the entry with pIC50 for Cn1cncc1C1(O)c2ccc(Cl)c(c2)OCCc2cccc(c2)-c2cc(=O)[nH]c3ccc1cc23 (racemic)
≥ 8.00

====

Reported pIC50 values for a set of compounds
System: Recombinant human farnesyl transferase (FTase) (Homo sapiens, UniProt P49356)
Assay Notes: FTase fluorescence assay (farnesylation of dansyl-GCVLS peptide)
Condition Label: recombinant human FTase 2.5 nM, Dansyl-GCVLS 85 nM, FPP 30 nM, 30° C., 50 minutes
pIC50: −log10 of the molar value.

Below: 4 compounds and their reported pIC50.
Compound	Assay Readout	Test Value
Cn1cncc1[C@]1(O)c2ccc(C#N)c(c2)OCCc2cccc(c2)-c2cc(=O)n(C)c3ccc1cc23 (racemic) [(R)-36]	pIC50	< 7.00
Cn1cncc1[C@@]1(N)c2ccc(C#N)c(c2)COc2cccc(c2)-c2cc(=O)n(C3CC3)c3ccc1cc23 [(S)-57]	pIC50	≥ 8.00
[2H]C([2H])([2H])n1cncc1[C@@]1(O)c2ccc(C#N)c(c2)COc2cccc(c2)-c2cc(C#N)nc3ccc1cc23 [(S)-078]	pIC50	≥ 8.00
Cn1cncc1C1(O)c2ccc(Cl)c(c2)COc2cccc(c2)-c2cc(=O)[nH]c3ccc1cc23 (centres unmarked)	pIC50	≥ 8.00

Complete the entry with pIC50 for Cn1cnnc1[C@]1(N)c2ccc(C#N)c(c2)OCCc2cccc(c2)-c2cc(=O)n(C)c3ccc1cc23 (racemic) [(R)-39]
< 7.00

====

System: Recombinant human farnesyl transferase (FTase) (Homo sapiens)
Assay Notes: FTase fluorescence assay (farnesylation of dansyl-GCVLS peptide)
Condition Label: recombinant human FTase 2.5 nM, Dansyl-GCVLS 85 nM, FPP 30 nM, 30° C., 50 minutes
Reported IC50 values for a set of compounds

Compound	Test Value
Cn1cncc1[C@]1(N)c2ccc(C#N)c(c2)COc2cccc(c2)-c2cc(N3CCOCC3)nc3ccc1cc23 (racemic) [(R)-66]	≤ 10 nM
[2H]C([2H])([2H])n1c(=O)cc2c3cc(ccc31)C(O)(c1nncn1C)c1ccc(Cl)c(c1)OCCc1cccc-2c1 (centres unmarked) [Compound 32]	10 to 100 nM
[2H]C([2H])([2H])n1cncc1[C@]1(O)c2ccc(C#N)c(c2)COc2cccc(c2)-c2cc(C#N)nc3ccc1cc23 [(R)-078]	10 to 100 nM
Cn1cncc1[C@@]1(O)c2ccc(C#N)c(c2)OCCc2cccc(c2)-c2cc(=O)n(C)c3ccc1cc23 [(S)-36]	≤ 10 nM
Cn1cncc1C1(O)c2ccc(Cl)c(c2)COc2cccc(c2)-c2cc(=O)n(C)c3ccc1cc23 (centres unmarked) [Compound 45]	≤ 10 nM
[2H]C([2H])([2H])n1c(=O)cc2c3cc(ccc31)[C@@H](n1cnc(C)c1)c1ccc(Cl)c(c1)COc1cccc-2c1 [(R)-77]	10 to 100 nM

Complete the entry with IC50 for Cc1cncn1[C@@H]1c2ccc(C#N)c(c2)COc2cccc(c2)-c2cc(C#N)nc3ccc1cc23 [(S)-91]
> 100 nM

Complete the entry with IC50 for Cn1cncc1[C@@]1(N)c2ccc(C#N)c(c2)OCCc2cccc(c2)-c2cc(=O)n(C)c3ccc1cc23 [(S)-37]
≤ 10 nM
